Recorded measurements of growth, one per entry
System: T-47D breast
Test: NCI-60 one-dose screen, 48 h (100 = growth as untreated, 0 = no growth, -100 = all killed)
Settings: 10 µM unless noted
This is part of a sample that, as a whole, favours compounds with a hit. Of some 83,000 tested, about 20% had one in any assay.
assay metric: growth (%)

> print(dat)
                                    molecule  assay.metric  unit.string  observed
 1           Nc1ccc(C2c3ccccc3Oc3ccccc32)cc1        growth            %      84.1
 2  FC(F)(F)c1cccc(Nc2nc(-c3ccccc3)nc3ncccc23)c1        growth            %      82.9
 3    Nc1ncnc(N)c1NC(=O)c1ccc(OCc2ccccc2)cc1        growth            %        96
 4  COc1ccc(-c2nc(-c3ccccn3)c(-c3ccccn3)n2CC(C)C)cc1OC1CCCC1        growth            %      21.5
 5  COc1cc(C(C)n2cc(-c3ccccc3)nn2)ccc1OC1CCCC1 (stereo not drawn)        growth            %      51.5
 6  CCCCN1CCN(c2ccc3nc(-c4ccc5nc(-c6ccc(OC)c(OC)c6)[nH]c5c4)[nH]c3c2)CC1        growth            %      17.6
 7  O=c1c(-c2nc3ccccc3[nH]2)cc2ccccc2n1Cc1cn(Cc2ccccc2Cl)nn1        growth            %      66.4
 8    CCOC(=O)C(CC(=O)O)=C(C(=O)OCC)C(=O)OCC        growth            %       100
 9  COc1ccc(OC)c(/C=C/C(=O)c2c(C)nc3ccccc3c2/C=C/c2ccccc2)c1        growth            %      30.6
10  CC1=NCC2NC(=O)NC(C)=C12 (stereo not drawn)        growth            %       113
11  CN1C(=O)N(C)C2C1NN=c1s/c(=C\c3ccc([N+](=O)[O-])cc3)c(=O)n12 (stereo not drawn)        growth            %      66.5
12  Cc1ccccc1CNC(=O)C1CN(c2ccc(Cl)cc2)N(c2ccc(Cl)cc2)C1=O (stereo not drawn)        growth            %      71.6
13       Cn1c(C(=O)c2cccc3ccccc23)nc2ccccc21        growth            %        17
